# ASSAYED TARGET: Cytochrome P450 2D6 (Homo sapiens) (UniProt P10635)
# Sequence (P10635 whole entry, looked up): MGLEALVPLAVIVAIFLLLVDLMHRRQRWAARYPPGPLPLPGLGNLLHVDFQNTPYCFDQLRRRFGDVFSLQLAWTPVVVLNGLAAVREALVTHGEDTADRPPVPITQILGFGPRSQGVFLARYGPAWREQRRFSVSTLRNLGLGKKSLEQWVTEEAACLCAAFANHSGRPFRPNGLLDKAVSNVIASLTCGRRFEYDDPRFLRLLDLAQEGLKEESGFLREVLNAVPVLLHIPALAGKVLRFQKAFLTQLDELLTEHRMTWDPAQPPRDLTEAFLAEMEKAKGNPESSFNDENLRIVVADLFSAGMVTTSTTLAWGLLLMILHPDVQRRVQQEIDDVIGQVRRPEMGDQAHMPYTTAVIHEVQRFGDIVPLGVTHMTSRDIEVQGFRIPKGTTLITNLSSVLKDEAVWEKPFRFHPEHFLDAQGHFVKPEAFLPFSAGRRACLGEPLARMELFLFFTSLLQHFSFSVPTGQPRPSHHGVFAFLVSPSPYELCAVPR
# ASSAY NAME: Cytochrome P450 family 2 subfamily D member 6 (CYP2D6) small molecule antagonists: luciferase biochemical (cell-free) qHTS assay (AID 1645840); note: nearly all actives have a fitted effect of over 55% in size
# CONDITIONS USED: P450-Glo CYP2D6 enzyme, luciferin luminescence, 1 h; series mostly up to 57.4 µM
Results filed as inconclusive are left out. Active and inactive are the calls of the source. Calls come from the whole dose curve; as a rule, active = well fitted inhibition curve with a large enough effect in the repeat runs; inconclusive = weak or mixed curves; inactive = flat fitted curve, though single readings scatter.
Possible outcomes: active, inactive

INSERT INTO measurements (molecule, assigned_category) VALUES
  ('CC(=O)N1N=C(c2ccc(N)cc2)c2cc3c(cc2C[C@H]1C)OCO3', 'inactive'),
  ('COc1ccc2[nH]c(-c3ccccc3)c(CCN(C)C)c2c1', 'active'),
  ('c1ccc([C@@H]2C[C@H]2NC2CCNCC2)cc1', 'active'),
  ('O=C1CN=C(c2cccc(Br)c2)c2oc3ccccc3c2N1', 'inactive'),
  ('COC(=O)c1ccccc1C(=O)OC', 'inactive'),
  ('Cc1ccc(Cn2nc(C(=O)N[C@@H]3C(C)(C)[C@@H]4CC[C@@]3(C)C4)cc2-c2ccc(Cl)c(C)c2)cc1', 'inactive'),
  ('N#Cc1ccccc1-c1cc(-c2ccccn2)cn(-c2ccccc2)c1=O', 'inactive'),
  ('CCCN(CCC)[C@@H]1CCc2ccc3[nH]c(C#N)cc3c2C1', 'active'),
  ('CC(=O)NCCCOc1ccc(C(=O)N2CCC(N3C(=O)CCc4ccccc43)CC2)cc1', 'inactive'),
  ('CCOC(=O)c1ccc(-c2ccc(OC(=O)N(C)Cc3cccc(-c4ccncc4)c3)cc2)cc1', 'active'),
  ('N#Cc1cn([C@@H]2O[C@H](CO)[C@H](O)[C@@H]2O)c2ncnc(N)c12', 'inactive'),
  ('O=C(CC1NCCC[C@H]1O)Cn1cnc2cc(Br)c(Cl)cc2c1=O (stereo partly specified)', 'inactive'),
  ('c1ccc(C2(c3ccccc3)OC[C@@H]([C@H]3CCCCN3)O2)cc1', 'active'),
  ('CCCCn1cc(C(=O)c2cccc3ccccc23)c2ccccc21', 'inactive'),
  ('Cc1c(N2C(=O)[C@@H]3[C@H](O)CCN3C2=O)ccc(C#N)c1Cl', 'inactive'),
  ('Cc1ccc2c(c1)[C@H]1CN(C)CC[C@H]1N2C(=O)CSc1nnnn1-c1ccc(Cl)cc1', 'active'),
  ('CN1CCC2=C(C1)c1ccccc1Cc1ccccc12', 'active'),
  ('CC1(C)C(=O)N(c2ccc(C#N)c(C(F)(F)F)c2)C(=O)N1CCCCO', 'inactive'),
  ('CN(C)c1cc2c(cc1Sc1nc3c(N)nccc3n1CCNCC(C)(C)C)OCO2', 'active'),
  ('COc1ccc(C(C)(C)C)cc1CN[C@H]1C2CCN(CC2)[C@H]1C(c1ccccc1)c1ccccc1', 'active'),
  ('CCOC(=O)Nc1ccc(NCc2c(C)cc(C)cc2C)cc1N', 'active'),
  ('CN=C(NS(=O)(=O)c1ccc(Cl)cc1)N1C[C@H](c2ccccc2)C(c2ccc(Cl)cc2)=N1', 'inactive'),
  ('COc1cc(N2CCN(C)CC2)ccc1N', 'inactive'),
  ('COc1cccc(NCC(F)Cn2c3ccc(Br)cc3c3cc(Br)ccc32)c1 (stereo unspecified)', 'inactive'),
  ('CCCCCn1cc(C(=O)Cc2ccccc2OC)c2ccccc21', 'inactive'),
  ('Cc1ccccc1CN1CCC(N2CCC(n3c(=O)[nH]c4ccccc43)CC2)CC1', 'active'),
  ('Fc1cc(F)c2c(c1)C1C=CCC1C(c1cccnc1)N2 (stereo unspecified)', 'active'),
  ('Cc1sc2c(c1C)C(c1ccc(Cl)cc1)=NC(CC(=O)Nc1ccc(O)cc1)c1nnc(C)n1-2 (stereo unspecified)', 'inactive'),
  ('CCCCN1[C@@H]2CC[C@H]1CC(OC(c1ccc(F)cc1)c1ccc(F)cc1)C2 (stereo partly specified)', 'active'),
  ('CCCCNC(C)(C)[P+](=O)O', 'inactive'),
  ('CNc1ccc2oc(C[C@H]3O[C@@]4(CC[C@H]3C)O[C@H](C(C)C(=O)c3ccc[nH]3)[C@H](C)C[C@H]4C)nc2c1C(=O)O (stereo partly specified)', 'inactive');
